Biological target: ATM kinase (Homo sapiens)
Construct: endogenous in cells
Assay: Assay a) ATM cellular potency (pATM Ser1981 in X-ray irradiated HT29 cells)
Details: HT29 cells, 1 h compound, X-ray ~600 cGy, pATM Ser1981; may be geometric mean of several tests; read-out: Assay a) ATM Cell IC50
Method: The following assays were used to measure the effects of the compounds of the present invention: a) ATM cellular potency assay; b) PI3K cellular potency assay; c) mTOR cellular potency assay; d) ATR cellular potency assay. During the description of the assays, generally: • i. […] IC50 values were calculated using a smart fitting model in Genedata. […] The rationale of the pATM assay is to identify inhibitors of ATM in cells. […] The fluorescence is read on the arrayscan imaging platform. […]
measurement-type: IC50 (pM)

CC(C)n1c(=O)n(C)c2cnc3ccc(-c4ccc(OCCCN5CCCC5)nc4F)cc3c21 [Example 12]    799

A = CC(C)n1c(=O)n(C)c2cnc3ccc(-c4ccc(OCCCN(C)C)nc4F)cc3c21 [Example 10]
B = CC(C)n1c(=O)n(C)c2cnc3cc(F)c(-c4ccc(OCCCN5CCC5)nc4F)cc3c21 [Example 16]
For A and B , which recorded IC50 is lower? Choose, then provide that item's label.
A

* * *

target: ATR kinase (Homo sapiens, UniProt Q13535); construct: measuring a decrease in phosphorylation of Chk1 (Ser 345) in HT29 cells; endogenous in cells; test: Assay b) ATR cellular potency (pChk1 Ser345 in HT29 cells after 4NQO); settings: HT29 cells, 4NQO, pChk1 Ser345; may be geometric mean of several tests; read-out: Assay b) ATR Cell IC50
Sequence (Q13535 whole entry): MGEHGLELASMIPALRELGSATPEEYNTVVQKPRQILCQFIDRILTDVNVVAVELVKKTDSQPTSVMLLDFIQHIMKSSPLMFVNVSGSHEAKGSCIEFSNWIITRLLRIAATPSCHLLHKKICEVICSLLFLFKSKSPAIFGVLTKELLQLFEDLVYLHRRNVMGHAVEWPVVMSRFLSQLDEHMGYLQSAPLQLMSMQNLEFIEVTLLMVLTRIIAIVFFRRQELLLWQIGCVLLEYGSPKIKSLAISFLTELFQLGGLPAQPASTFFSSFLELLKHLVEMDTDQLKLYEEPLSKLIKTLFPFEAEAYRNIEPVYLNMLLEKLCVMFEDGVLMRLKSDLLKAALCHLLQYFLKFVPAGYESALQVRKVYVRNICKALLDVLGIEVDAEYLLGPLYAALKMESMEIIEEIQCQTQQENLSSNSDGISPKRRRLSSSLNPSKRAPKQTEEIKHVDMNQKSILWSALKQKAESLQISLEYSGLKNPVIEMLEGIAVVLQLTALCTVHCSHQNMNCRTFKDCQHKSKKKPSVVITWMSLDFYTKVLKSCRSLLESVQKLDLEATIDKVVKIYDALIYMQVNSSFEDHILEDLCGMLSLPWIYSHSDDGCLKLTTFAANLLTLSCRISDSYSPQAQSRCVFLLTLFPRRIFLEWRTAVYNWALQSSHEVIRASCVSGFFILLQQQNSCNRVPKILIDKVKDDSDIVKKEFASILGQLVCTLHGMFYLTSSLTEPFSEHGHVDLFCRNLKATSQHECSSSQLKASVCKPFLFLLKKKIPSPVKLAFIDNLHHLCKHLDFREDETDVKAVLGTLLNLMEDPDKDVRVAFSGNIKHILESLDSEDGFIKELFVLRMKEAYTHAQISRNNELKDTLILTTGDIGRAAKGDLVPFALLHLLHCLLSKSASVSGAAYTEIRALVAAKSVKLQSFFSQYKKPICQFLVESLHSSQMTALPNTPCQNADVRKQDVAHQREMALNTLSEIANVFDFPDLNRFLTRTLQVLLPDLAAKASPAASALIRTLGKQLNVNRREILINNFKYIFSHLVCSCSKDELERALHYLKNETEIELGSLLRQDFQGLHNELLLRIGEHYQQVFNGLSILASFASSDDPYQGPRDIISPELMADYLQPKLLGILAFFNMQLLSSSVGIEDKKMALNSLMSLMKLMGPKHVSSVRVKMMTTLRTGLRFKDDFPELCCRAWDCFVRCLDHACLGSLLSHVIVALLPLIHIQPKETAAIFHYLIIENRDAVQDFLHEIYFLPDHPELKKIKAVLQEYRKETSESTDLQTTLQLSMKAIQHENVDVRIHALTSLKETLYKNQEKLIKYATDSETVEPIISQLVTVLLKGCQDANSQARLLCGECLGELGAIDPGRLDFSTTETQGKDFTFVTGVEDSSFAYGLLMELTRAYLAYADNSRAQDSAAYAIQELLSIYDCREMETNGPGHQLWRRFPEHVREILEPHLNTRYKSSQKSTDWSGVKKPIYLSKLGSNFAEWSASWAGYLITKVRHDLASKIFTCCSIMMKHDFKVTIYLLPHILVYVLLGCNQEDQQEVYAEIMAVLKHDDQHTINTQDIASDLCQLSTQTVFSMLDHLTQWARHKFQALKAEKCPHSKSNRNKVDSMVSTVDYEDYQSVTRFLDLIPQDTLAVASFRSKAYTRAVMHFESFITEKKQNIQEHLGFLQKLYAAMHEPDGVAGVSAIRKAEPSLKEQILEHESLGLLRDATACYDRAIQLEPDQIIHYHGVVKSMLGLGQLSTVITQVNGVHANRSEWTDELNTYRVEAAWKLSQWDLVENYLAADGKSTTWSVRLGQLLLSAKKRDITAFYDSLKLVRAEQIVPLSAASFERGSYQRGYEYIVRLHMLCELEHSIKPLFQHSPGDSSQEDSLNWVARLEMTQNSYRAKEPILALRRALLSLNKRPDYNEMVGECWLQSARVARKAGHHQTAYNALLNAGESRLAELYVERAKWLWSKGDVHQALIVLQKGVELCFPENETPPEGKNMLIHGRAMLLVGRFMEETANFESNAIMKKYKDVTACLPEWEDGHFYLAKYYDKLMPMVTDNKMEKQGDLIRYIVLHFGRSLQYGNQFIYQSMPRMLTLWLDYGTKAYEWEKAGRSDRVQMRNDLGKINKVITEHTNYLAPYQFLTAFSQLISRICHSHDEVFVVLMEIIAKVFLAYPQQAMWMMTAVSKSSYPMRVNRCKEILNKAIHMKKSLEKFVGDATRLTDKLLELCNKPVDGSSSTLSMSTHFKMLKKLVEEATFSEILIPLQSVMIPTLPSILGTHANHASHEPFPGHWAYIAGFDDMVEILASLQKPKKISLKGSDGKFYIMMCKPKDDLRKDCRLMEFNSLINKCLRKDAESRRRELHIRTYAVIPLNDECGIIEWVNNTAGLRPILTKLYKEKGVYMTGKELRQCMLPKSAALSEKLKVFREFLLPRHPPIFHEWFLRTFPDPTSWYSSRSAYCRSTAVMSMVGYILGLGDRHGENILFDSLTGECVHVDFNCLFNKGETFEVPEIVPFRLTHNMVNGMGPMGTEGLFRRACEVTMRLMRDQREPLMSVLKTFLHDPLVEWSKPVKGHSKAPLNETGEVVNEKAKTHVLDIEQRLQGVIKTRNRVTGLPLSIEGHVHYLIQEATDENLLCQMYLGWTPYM
Sequence (Q8WXE1 whole entry partner): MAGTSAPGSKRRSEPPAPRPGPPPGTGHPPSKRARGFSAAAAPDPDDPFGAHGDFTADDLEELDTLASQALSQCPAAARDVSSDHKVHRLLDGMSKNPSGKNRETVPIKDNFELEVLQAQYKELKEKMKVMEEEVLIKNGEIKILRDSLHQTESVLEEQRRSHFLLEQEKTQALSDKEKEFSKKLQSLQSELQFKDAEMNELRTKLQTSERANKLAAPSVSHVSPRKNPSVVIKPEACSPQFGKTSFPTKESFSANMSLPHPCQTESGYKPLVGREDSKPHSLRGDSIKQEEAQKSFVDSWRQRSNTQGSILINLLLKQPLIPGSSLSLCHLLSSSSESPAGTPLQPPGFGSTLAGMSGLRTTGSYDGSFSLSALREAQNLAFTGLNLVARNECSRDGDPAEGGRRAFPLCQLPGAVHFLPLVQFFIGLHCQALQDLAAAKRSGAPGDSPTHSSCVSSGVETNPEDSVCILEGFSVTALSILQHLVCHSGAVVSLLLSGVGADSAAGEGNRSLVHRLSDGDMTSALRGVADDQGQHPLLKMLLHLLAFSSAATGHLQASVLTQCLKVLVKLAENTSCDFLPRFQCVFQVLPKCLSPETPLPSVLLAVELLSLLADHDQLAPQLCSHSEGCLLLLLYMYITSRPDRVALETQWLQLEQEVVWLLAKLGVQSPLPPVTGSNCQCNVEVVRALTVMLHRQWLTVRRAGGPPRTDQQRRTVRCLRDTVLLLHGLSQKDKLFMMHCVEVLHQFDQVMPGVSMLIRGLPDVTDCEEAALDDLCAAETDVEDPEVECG
measurement-type: IC50

Completed entries (count: 10):
CC(C)n1c(=O)[nH]c2cnc3cc(F)c(-c4ccc(OCCCN5CCCCC5)nc4)cc3c21    > 30 µM
CC(C)n1c(=O)n(C)c2cnc3cc(F)c(-c4ccc(OCCCN5CCCCC5)nc4F)cc3c21    > 30 µM
CC(C)n1c(=O)n(C)c2cnc3ccc(-c4ccc(OCCCN5CCCC5)nc4F)cc3c21    > 30 µM
Cn1c(=O)n(C2CC2)c2c3cc(-c4cnc5[nH]ccc5c4)ccc3ncc21 [CN102399218A Compound 62, reference compound]    0.0553 µM
CC(C)n1c(=O)n(C)c2cnc3cc(F)c(-c4ccc(OCCC[N+]5([O-])CCCCC5)nc4)cc3c21 [Metabolite A]    9.41 µM
CC(C)n1c(=O)n(C)c2cnc3ccc(-c4ccc(OCCCN(C)C)nc4)cc3c21    > 20.7 µM
CC(C)n1c(=O)n(C)c2cnc3ccc(-c4ccc(OCCCN5CCCC5)nc4)cc3c21    > 30 µM
CC(C)n1c(=O)[nH]c2cnc3cc(F)c(-c4ccc(OCCCN(C)C)nc4)cc3c21    > 30 µM
CC(C)n1c(=O)n(C)c2cnc3cc(F)c(-c4ccc(OCCCN5CCCC5)nc4)cc3c21    > 30 µM
CC(C)n1c(=O)n(C)c2cnc3cc(F)c(-c4ccc(OCCCN5CCC5)nc4F)cc3c21    > 30 µM

Fill in the recorded IC50 for this molecule, with ATR kinase (Homo sapiens, UniProt Q13535) as test system: CC(C)n1c(=O)n(C)c2cnc3cc(F)c(-c4ccc(OCCCN5CCCC5)nc4F)cc3c21
> 30 µM

Note, next up: CC(C)n1c(=O)n(C)c2cnc3cc(F)c(-c4ccc(OCCCN5CCC5)nc4)cc3c21
> 30 µM

Repeat with CC(C)n1c(=O)n(C)c2cnc3cc(F)c(-c4ccc(OCCCN(C)C)nc4)cc3c21
> 30 µM

Try CC(C)n1c(=O)n(C)c2cnc3cc(F)c(-c4ccc(OCCCN(C)C)nc4F)cc3c21 next.
> 30 µM
